- PROTOCOL NOTES: Solubility limit of quinoxaline in electrolytes and DI H2O
- Assay type: physicochemical
- CONDITION DESCRIPTION: 0.495 M K2SO4/0.01 M KOH electrolyte, aqueous buffer, thermodynamic from solid; 0.495M K2SO4/0.01M KOH, pH 11.8; room temperature; three phase separation; read-out: Solubility Limit
REPORTED PROPERTY: solubility (mM)

c1ccc2nccnc2c1 [quinoxaline] = 500

---

- PROTOCOL NOTES: Solubility limit of quinoxaline in electrolytes and DI H2O
- Assay type: physicochemical
- CONDITION DESCRIPTION: solutions containing KCl, aqueous buffer, thermodynamic from solid; read-out: solubility of quinoxaline
- Experimental: The solubility limit (at room temperature) of quinoxaline in several electrolytes and DI H2O was estimated using the following method. Scintillation vials were filled with a known volume of electrolyte, and quinoxaline was added in 0.5 M increments. The vials were then vortex sonicated for ˜5 min between quinoxaline additions. Once no more quinoxaline could be dissolved into the vial, the solubility limit was recorded. […]
REPORTED PROPERTY: solubility

c1ccc2nccnc2c1 [quinoxaline] = ≤ 4000 mM

---

- PROTOCOL NOTES: Solubility limit of quinoxaline in electrolytes and DI H2O
- Type: physicochemical
- CONDITION DESCRIPTION: aqueous electrolytes containing K2SO4 or only KOH, aqueous buffer, thermodynamic from solid; read-out: solubility of quinoxaline
REPORTED PROPERTY: solubility

c1ccc2nccnc2c1 = ≤ 500 mM

---

- PROTOCOL NOTES: Solubility limit of quinoxaline in electrolytes and DI H2O
- Format: physicochemical
- CONDITION DESCRIPTION: 0.9 M KCl/0.1 M KOH electrolyte, aqueous buffer, thermodynamic from solid; 0.9M KCl/0.1M KOH, pH 12.9; room temperature; bed of small crystals; read-out: Solubility Limit
- Experimental: The solubility limit (at room temperature) of quinoxaline in several electrolytes and DI H2O was estimated using the following method. Scintillation vials were filled with a known volume of electrolyte, and quinoxaline was added in 0.5 M increments. The vials were then vortex sonicated for ˜5 min between quinoxaline additions. Once no more quinoxaline could be dissolved into the vial, the solubility limit was recorded. […]
REPORTED PROPERTY: solubility

c1ccc2nccnc2c1 [quinoxaline] = 4000 mM

---

- PROTOCOL NOTES: Solubility limit of quinoxaline in electrolytes and DI H2O
- Type: physicochemical
- CONDITION DESCRIPTION: water, thermodynamic from solid; DI H2O, pH 7.0; room temperature; bed of small crystals; read-out: Solubility Limit
REPORTED PROPERTY: solubility (mM)

c1ccc2nccnc2c1 = 4500

---

- PROTOCOL NOTES: Solubility limit of quinoxaline in electrolytes and DI H2O
- Type: physicochemical
- CONDITION DESCRIPTION: 0.99 M KCl/0.01 M KOH electrolyte, aqueous buffer, thermodynamic from solid; 0.99M KCl/0.01M KOH, pH 11.8; room temperature; bed of small crystals; read-out: Solubility Limit
REPORTED PROPERTY: solubility (mM)

c1ccc2nccnc2c1 = 4000

Taken from patent US10658848B2.
